Reference source for all entries: ChEMBL document CHEMBL1201862

tested on: RXF 393; test: NCI tumour cell line growth inhibition, 48 h
Activity calls are given as the source filed them. Cut-off read from the data, not from the text of the source: active = GI50 up to about 1.1 µM and inactive = higher.
Hello, when you answer, please use one of the following outcomes: active, inactive

Recorded results for 4 compounds are shown here.
• Cn1c(=O)c2nc(COCc3nc4c(=O)n(C)c(=O)n(C)c4[nH]3)[nH]c2n(C)c1=O = inactive
• CC(C)NC(=O)OCCN=c1c2ccccc2ccc2ccccc12 = inactive
• O=C(O)C(Cc1ccc(O)c([N+](=O)[O-])c1)N1C(=O)c2ccccc2C1=O (stereo not given) = inactive
• COc1cccc(N[C@@H]2c3cc4c(cc3C(c3cc(OC)c(O)c(OC)c3)[C@H]3C(=O)OCC32)OCO4)c1 (stereo not given in full) = active

Please share the test call associated with NC1=NN(c2ccccc2)C(=O)C1C(=O)CCC(=O)Nc1cccc(Cl)c1 (stereo not given) .
inactive

Please share the test call associated with Cc1ccc(S(=O)(=O)N2CCc3cc(O)c([N+](=O)[O-])cc32)cc1 .
inactive

Please share the test call associated with OCC(O)C(OC1OC(CO)C(O)C(O)C1O)c1nn(-c2ccc(F)cc2)c2nc3cc(Cl)c(Cl)cc3cc12 (stereo not given) .
inactive

Please share the test call associated with CC(C)(C)OC(=O)N1CCCC1=O .
inactive

Please share the test call associated with COC(=O)C(Cc1nc2ccc(Cl)cc2nc1O)/C(=N/O)C(=O)Nc1cccc(Cl)c1C (stereo not given) .
inactive

Please share the test call associated with Cc1cccc(/C=N/NC(=S)Nc2ccccc2)n1 .
inactive

Please share the test call associated with c1ccc(COCC2OC3c4ccccc4COC3C2OCc2ccccc2)cc1 (stereo not given) .
inactive

Please share the test call associated with N#CCC(=O)N/N=C\C(O)C(O)C(O)C(O)CO (stereo not given) .
inactive

Please share the test call associated with Nc1ncnc2c1ncn2C1OC(CO)=CC1O (stereo not given) .
inactive

Please share the test call associated with O=C(O)CN1C=C(C(=O)c2cc3ccccc3n2S(=O)(=O)c2ccccc2)CCC1 .
inactive

Please share the test call associated with CCCC(=O)OCC1OC(n2cc(F)c(=O)[nH]c2=O)CC1O (stereo not given) .
inactive

Please share the test call associated with O=C(CCCN1CCC2(CC1)CC(c1ccccc1)OC2=O)c1ccc(F)cc1 (stereo not given) .
inactive

Please share the test call associated with CN(C)c1ccc(/N=N\c2cccc3ncccc23)cc1 .
inactive

---

Item-by-item account of GI50
tested on: HT-29; assay: NCI tumour cell line growth inhibition, 48 h
Activity calls are given as the source filed them. Rule as the data show it: active = GI50 up to about 1.1 µM and inactive = higher.

• C=C(C)C1CC=C(C(=O)O)CC1 (stereo not given) = 1450 µM (inactive)

Input CCOC(=O)C1(C#N)C(c2ccccc2)CC(O)(c2ccc([N+](=O)[O-])cc2)C(C(=O)c2ccc([N+](=O)[O-])cc2)C1c1ccccc1 (stereo not given) , output reported GI50.
> 100 µM (inactive)

Input CC1=NN(c2cccc(Cl)c2)C(=N/c2nc3ccccc3s2)/C1=C\C=C\c1ccccc1 , output reported GI50.
33.5 µM (inactive)

Input CC1(C)C=[N+]([O-])C(C)(C)N1O , output reported GI50.
> 10 µM (inactive)

Input CN(C)c1ccc(/N=N\c2cccc3ncccc23)cc1 , output reported GI50.
39 µM (inactive)

---

tested on: RXF 393; assay: NCI tumour cell line growth inhibition, 48 h
Calls of active or inactive are those of the source. No stated cut-off is given here; in the data, active = GI50 up to about 1.1 µM and inactive = higher.
Item-by-item account of GI50

# return GI50 for COc1ccc(C2c3c(n(C)c(=O)n(C)c3=O)OC(N(C)C)(N(C)C)C2(F)F)cc1 (configuration not stated) , test system: RXF 393
> 100 µM (inactive)

# return GI50 for COc1cc(C2C(Cl)C(=O)N2NC(=O)Cc2ccccc2)ccc1O (configuration not stated) , test system: RXF 393
59 µM (inactive)

# return GI50 for CCOc1cccc2sc(N)nc12 , test system: RXF 393
> 100 µM (inactive)

# return GI50 for Cc1ccc2c(c1)C(C1Cc3cccc(C)c3C1=O)OC2=O (configuration not stated) , test system: RXF 393
22.4 µM (inactive)

# return GI50 for O=c1cc(-c2ccccc2)nc(/C=C(\O)c2ccncc2)n1-c1ccccc1 , test system: RXF 393
> 100 µM (inactive)

# return GI50 for O=[N+]([O-])/C(C(Cl)=C(Cl)Cl)=C(/Sc1ccccc1)N1CCCCC1 , test system: RXF 393
5.08 µM (inactive)

# return GI50 for O=[N+]([O-])c1c2nc3n(c2cc2c1nc1n2CCC1)CCC3 , test system: RXF 393
> 100 µM (inactive)

# return GI50 for COC(=O)C(=O)C(C(=O)C(=O)Nc1ccc(C)cc1C)c1nc2ccccc2nc1O (configuration not stated) , test system: RXF 393
17.8 µM (inactive)

# return GI50 for C=C(C)C1CC=C(C(=O)O)CC1 (configuration not stated) , test system: RXF 393
942 µM (inactive)

# return GI50 for O=c1c2cc(I)ccc2nc(S)n1Cc1ccccc1 , test system: RXF 393
16.6 µM (inactive)

# return GI50 for COc1ccc(/C=N/N=C(\N)NO)c(Cl)c1O , test system: RXF 393
16.5 µM (inactive)

# return GI50 for CN(C)c1nc2n(CCO)ccnc-2c(=O)n1 , test system: RXF 393
> 100 µM (inactive)

---

test system: HOP-18; assay: NCI tumour cell line growth inhibition, 48 h
Activity calls are given as the source filed them. No stated cut-off is given here; in the data, active = GI50 up to about 1.1 µM and inactive = higher. Square brackets hold non-standard residues; d marks the D form. Peptide text beside a SMILES is read from it. 2Nal = N[CH](Cc1ccc2ccccc2c1)C(=O)O
Hello, when you answer, please use one of the following outcomes: label 1 for active, label 0 for inactive

• COc1cc(NC(C)=O)c2[nH]c3c(C)cc(NC(C)=O)c(C)c3c2c1 = label 0

Please share the test call associated with COc1cc(NS(C)(=O)=O)ccc1Nc1c2ccccc2nc2c1[nH]c1ccc(NC3OC(CO)C(O)C(O)C3O)cc12 (stereo not given) .
label 1

Please share the test call associated with Cc1ccc(NC(=O)CC/C(CC(=O)C(C)(C)C)=N\Nc2ccc([N+](=O)[O-])cc2[N+](=O)[O-])cc1C .
label 0

Please share the test call associated with Cc1ccccc1NC(=O)/C(=N\NC(N)=S)C(C#N)c1ccccc1 (stereo not given) .
label 0

Please share the test call associated with O=S(=O)(CF)OCCCCOS(=O)(=O)CF .
label 0

Please share the test call associated with O=C(CSc1nnc(Cc2ccccc2)o1)Nc1cccc([N+](=O)[O-])c1 .
label 0

Please share the test call associated with O=C(/C=C/c1ccc(OCC(=O)N2CCN(c3ccccc3)CC2)cc1)c1ccc(Cl)cc1 .
label 0

Please share the test call associated with Cc1ccccc1NC(=O)/C=N/O .
label 0

Please share the test call associated with CCOc1ccc(NCC(=O)N2CC(=O)Nc3ccccc32)cc1 .
label 0

Please share the test call associated with CC(=O)OCC1OC(N2C(=O)C(=O)c3ccccc32)C(OC(C)=O)C(OC(C)=O)C1OC(C)=O (stereo not given) .
label 0

Please share the test call associated with COc1ccc2[nH]c3c4c(c5cc(C(C)(C)C)ccc5c3c2c1)C(=O)N(c1ccccc1)C4=O .
label 0

Please share the test call associated with Cc1ccc(/C=C2\CNC/C(=C\c3ccc(C)cc3)C2=O)cc1 .
label 0

Please share the test call associated with O=C1NC2OC(C(O)CO)C(O)C2O1 (stereo not given) .
label 0

Please share the test call associated with CC(C)C(NC(=O)C(CCCCN)NC(=O)C(Cc1c[nH]c2ccccc12)NC(=O)C(Cc1ccc(O)cc1)NC(=O)C(CS)NC(=O)C(N)Cc1ccc2ccccc2c1)C(=O)NC(CS)C(=O)NC(C(N)=O)C(C)O (stereo not given) (H-[2Nal]CYWKVCT-NH2; configuration not given here) .
label 0

Please share the test call associated with COc1cc(CCc2cccnc2)cc(OC)c1OC .
label 0

Please share the test call associated with c1ccc(COCC2OC3c4ccccc4COC3C2OCc2ccccc2)cc1 (stereo not given) .
label 0

Please share the test call associated with Cc1ccccc1NC(=O)C(=O)CC(=O)c1ccc([N+](=O)[O-])cc1 .
label 0

Please share the test call associated with NCCNc1ccc(NCCN)c2c1C(=O)c1c(O)ccc(O)c1C2=O .
label 1

Please share the test call associated with COc1ccc(/C=N/N=C(\N)NO)c(Cl)c1O .
label 0

Please share the test call associated with CCNC(=O)COc1ccc(Cl)cc1Cl .
label 0

---

Item-by-item account of GI50
system: HL-60; assay: NCI tumour cell line growth inhibition, 48 h
Activity calls are given as the source filed them. Cut-off read from the data, not from the text of the source: active = GI50 up to about 1.1 µM and inactive = higher.

• O=C1CC(Br)c2c(Br)sc(Br)c21 (centres undefined) = 14.2 µM (inactive)
• CC(C)(C)C(=O)/C=C(\OB(F)F)C(C)(C)C = > 100 µM (inactive)

Input O=C(CSc1nnc(Cc2ccccc2)o1)Nc1cccc([N+](=O)[O-])c1 , output reported GI50.
> 100 µM (inactive)

Input COc1cc(CCc2cccnc2)cc(OC)c1OC , output reported GI50.
> 100 µM (inactive)

Input CCOc1ccc(NCC(=O)N2CC(=O)Nc3ccccc32)cc1 , output reported GI50.
> 100 µM (inactive)

Input Cc1ccc(NC(=O)NC23CC4CC(CC(F)(C4)C2)C3)cc1 , output reported GI50.
64.3 µM (inactive)

Input COc1cc(NC(C)=O)c2[nH]c3c(C)cc(NC(C)=O)c(C)c3c2c1 , output reported GI50.
> 100 µM (inactive)

Input N#Cc1nnn(-c2ccccc2)c1O , output reported GI50.
> 100 µM (inactive)

Input COC(=O)[C@@H]1COC(C(C)(C)C)N1C(=O)C(c1ccccc1)c1ccccc1 (some centres undefined) , output reported GI50.
45.3 µM (inactive)
